All values here come from ChEMBL document CHEMBL1201862.

# System: IGROV-1
# Method Summary: NCI tumour cell line growth inhibition, 48 h
The source made the active and inactive calls. Cut-off read from the data, not from the text of the source: active = GI50 up to about 1.1 µM and inactive = higher.

>  <Molecule>
C/C(=N\NC(=S)Nc1ccc([N+](=O)[O-])cc1S(=O)(=O)O)c1ccccn1

>  <GI50>
73.1 µM (inactive)

$$$$
>  <Molecule>
C/C(=N/NC(N)=S)C(CN1CCOCC1)C(C1=C(O)c2ccccc2OC1)c1ccccc1 (stereo not drawn)

>  <GI50>
> 100 µM (inactive)

$$$$
>  <Molecule>
NC(=O)NC(=O)c1ccc(NC(=O)CBr)cc1

>  <GI50>
2.03 µM (inactive)

$$$$
>  <Molecule>
Cc1cccc2c1c(=O)c1c(O)c3c(cc1n2C)OC(C)(C)C=C3

>  <GI50>
> 10 µM (inactive)

$$$$
>  <Molecule>
Cc1c(-c2ccccc2)c(C#N)c2nnc(C(N)=O)c(N)n12

>  <GI50>
> 100 µM (inactive)

$$$$
>  <Molecule>
CC(C)(C)OC(=O)C1=C(C(=O)OC(C)(C)C)SC2(S1)C(C(=O)OC(C)(C)C)=C(C(=O)OC(C)(C)C)Sc1c2ssc1=O

>  <GI50>
59.4 µM (inactive)

$$$$
>  <Molecule>
N#CC(N)c1ccc(OCCCCCCCCCCOc2ccc(C(N)C#N)cc2)cc1 (stereo not drawn)

>  <GI50>
> 100 µM (inactive)

$$$$
>  <Molecule>
CC(C)C(=O)CP(=O)(O)O

>  <GI50>
> 100 µM (inactive)

$$$$
